Sourced from the RepoRT retention time repository (doi:10.1038/s41586-021-03707-9)

Kindly supply the reported LC retention time values for the records listed here.
assay: RP, Waters ACQUITY UPLC HSS C18, 100 × 2.1 mm, 1.7 µm, 40 °C, 0.35 mL/min, estimated dead time 0.63 min; A: water + 0.1% formic acid; B: methanol + 0.1% formic acid; gradient (min/%B) 0/0.5 4/70 4.5/98 5.4/98; conditions: stereoisomer not certain
Give the value in min but do not write min after it.

Query: Recorded LC retention time for O=C(O)CCCCCCCCCO , please?
Response: 5.06

Query: Now consider COc1cc(C=CC(=O)O)ccc1O and answer again.
Response: 3.87

Query: Now consider NC(CCS)C(=O)O (stereo not drawn) and answer again.
Response: 0.907

Query: Now consider Cn1c(=O)[nH]c2nc[nH]c2c1=O and answer again.
Response: 2.28

Query: Now consider NC1CCSC1=O (stereo not drawn) and answer again.
Response: 0.873

Query: Now consider O=C(O)c1c[nH]c(=O)[nH]c1=O and answer again.
Response: 1.51

Query: Now consider CC1C(=O)Nc2ccccc21 (stereo not drawn) and answer again.
Response: 4.43

Query: Now consider COc1ccc(OC)c(C(O)C(C)N)c1 (stereo not drawn) and answer again.
Response: 3.14

Query: Now consider CC12CCC(=O)C=C1CCC1C2C(O)CC2(C)C(C(=O)CO)CCC12 (stereo not drawn) and answer again.
Response: 5.31

Query: Now consider Cc1cc2nc[nH]c2cc1C and answer again.
Response: 3.34

Query: Now consider O=C(O)Cc1ccccc1 and answer again.
Response: 2.87

Query: Now consider O=C(O)Cc1c[nH]c2ccc(O)cc12 and answer again.
Response: 2.92

Query: Now consider O=C(O)c1ccccn1 and answer again.
Response: 1.14

Query: Now consider O=C(O)c1ccc2ccccc2n1 and answer again.
Response: 3.21

Query: Now consider CC(=O)NCC(=O)O and answer again.
Response: 1.13

Query: Now consider OCC1OC(OC2C(CO)OC(O)C(O)C2O)C(O)C(O)C1O (stereo not drawn) and answer again.
Response: 0.801

Query: Now consider CC1NC(=O)NC1CCCCCC(=O)O (stereo not drawn) and answer again.
Response: 3.88

Query: Now consider O=c1ccn(C2CC(O)C(COP(=O)(O)O)O2)c(=O)[nH]1 (stereo not drawn) and answer again.
Response: 1.35

Query: Now consider NC(Cc1ccc([N+](=O)[O-])cc1)C(=O)O (stereo not drawn) and answer again.
Response: 2.5

Query: Now consider CNCC(O)c1ccc(O)c(O)c1 (stereo not drawn) and answer again.
Response: 0.911

Query: Now consider COc1cc(CC(=O)O)ccc1O and answer again.
Response: 3.42

Query: Now consider Nc1nc2c(ncn2C2OC3COP(=O)(O)OC3C2O)c(=O)[nH]1 (stereo not drawn) and answer again.
Response: 1.99

Query: Now consider Cn1ccc(=O)n(C)c1=O and answer again.
Response: 2.38

Query: Now consider NCCCCCCCC(=O)O and answer again.
Response: 2.59

Query: Now consider Cn1c(=O)[nH]c2[nH]c(=O)[nH]c2c1=O and answer again.
Response: 2.1

Query: Now consider O=c1cccc[nH]1 and answer again.
Response: 1.94

Query: Now consider CCN(Cc1ccncc1)C(=O)C(CO)c1ccccc1 (stereo not drawn) and answer again.
Response: 3.36

Query: Now consider CC(O)CC(=O)O (stereo not drawn) and answer again.
Response: 0.799

Query: Now consider O=C(O)CCCCC(=O)O and answer again.
Response: 2.83

Query: Now consider NC(=O)CCC(NC(=O)Cc1ccccc1)C(=O)O (stereo not drawn) and answer again.
Response: 3.27

Query: Now consider CNC(CCC(=O)O)C(=O)O (stereo not drawn) and answer again.
Response: 0.817

Query: Now consider CNC(=C[N+](=O)[O-])NCCSCc1ccc(CN(C)C)o1 and answer again.
Response: 2.32

Query: Now consider O=C(O)C(O)Cc1ccccc1 (stereo not drawn) and answer again.
Response: 3.7

Query: Now consider CCCCCCSCC(NC(=O)CCC(N)C(=O)O)C(=O)NCC(=O)O (stereo not drawn) and answer again.
Response: 4.88

Query: Now consider CC(=O)OCC[N+](C)(C)C and answer again.
Response: 0.907

Query: Now consider CN1C2CCC1CC(OC(=O)C(CO)c1ccccc1)C2 (stereo not drawn) and answer again.
Response: 3.22

Query: Now consider COc1ccc(O)c(C(=O)O)c1 and answer again.
Response: 4.48

Query: Now consider C[N+](C)(C)[O-] and answer again.
Response: 0.766

Query: Now consider Nc1ccn(C2OC(CO)C3OP(=O)(O)OC32)c(=O)n1 (stereo not drawn) and answer again.
Response: 0.912

Query: Now consider CC(C(=O)O)c1ccc(O)cc1 (stereo not drawn) and answer again.
Response: 3.84

Query: Now consider NCC(O)c1ccc(O)cc1 (stereo not drawn) and answer again.
Response: 0.904

Query: Now consider Nc1ccc(O)c(C(=O)O)c1 and answer again.
Response: 1.54

Query: Now consider COc1ccc2[nH]cc(CC(=O)O)c2c1 and answer again.
Response: 4.09

Query: Now consider Nc1nc2c(ncn2CCC(CO)CO)c(=O)[nH]1 and answer again.
Response: 1.88

Query: Now consider CCC(=O)NCC(=O)O and answer again.
Response: 1.7

Query: Now consider OC(CCN1CCCCC1)(c1ccccc1)C1CCCCC1 (stereo not drawn) and answer again.
Response: 4.77

Query: Now consider CC(=O)NC1C(O)OC(CO)C(O)C1OC(C)C(=O)O (stereo not drawn) and answer again.
Response: 1.91

Query: Now consider COC(=O)Cc1c[nH]c2ccccc12 and answer again.
Response: 4.85

Query: Now consider NC(N)=S and answer again.
Response: 0.847

Query: Now consider O=c1[nH]c(=O)c2ncn(C3OC(CO)C(O)C3O)c2[nH]1 (stereo not drawn) and answer again.
Response: 2.09

Query: Now consider O=C(O)C(O)Cc1c[nH]c2ccccc12 (stereo not drawn) and answer again.
Response: 3.93

Query: Now consider Nc1ncnc2c1ncn2C1OC(CO)C(O)C1O (stereo not drawn) and answer again.
Response: 1.86

Query: Now consider O=C(O)CNC(=O)c1cccnc1 and answer again.
Response: 1.74

Query: Now consider c1ccc2[nH]ccc2c1 and answer again.
Response: 4.7

Query: Now consider CCN1CCCC1CNC(=O)c1cc(S(N)(=O)=O)ccc1OC (stereo not drawn) and answer again.
Response: 2.24

Query: Now consider C[n+]1cccc(C(=O)[O-])c1 and answer again.
Response: 0.822

Query: Now consider O=C(O)Cc1ccc(O)cc1 and answer again.
Response: 3.23

Query: Now consider NC(=O)Cc1c[nH]c2ccccc12 and answer again.
Response: 3.52

###

experiment: Waters ACQUITY UPLC BEH C18, 100 × 2.1 mm, 1.7 µm, 40 °C, 0.28 mL/min, estimated dead time 0.63 min; A: water + 6.5 mM ammonium hydroxide; B: methanol + 6.5 mM ammonium hydroxide; gradient (min/%B) 0/0.5 4/70 4.5/98 5.4/98; details: stereoisomer not certain
VALUE_KIND: LC retention time
Value and unit, in that order.

Query: Recorded LC retention time for O=C(O)c1cc(O)ccc1O , please?
Response: 1.63 min

Query: Now consider CCC(NC(=O)CCC(N)C(=O)O)C(=O)NCC(=O)O (stereo not drawn) and answer again.
Response: 0.928 min

Query: Now consider Nc1ncnc2c1ncn2C1OC(COP(=O)(O)OP(=O)(O)OCC2OC(O)C(O)C2O)C(O)C1O (stereo not drawn) and answer again.
Response: 0.924 min

Query: Now consider O=C(O)CCCCC1CCSS1 (stereo not drawn) and answer again.
Response: 3.95 min

Query: Now consider CC=C(C)C(=O)O and answer again.
Response: 1.61 min

Query: Now consider Cc1cccc(O)c1O and answer again.
Response: 4 min

Query: Now consider Cn1c(=O)c2[nH]cnc2n(C)c1=O and answer again.
Response: 2.75 min

Query: Now consider Cc1ccc(S(=O)(=O)O)cc1 and answer again.
Response: 2.67 min

Query: Now consider COc1cc(C(=O)O)ccc1O and answer again.
Response: 0.869 min

Query: Now consider CCN(CC)CCNC(=O)c1ccc(N)cc1 and answer again.
Response: 3.81 min

Query: Now consider CC(=O)NCCCC(=O)O and answer again.
Response: 0.923 min

Query: Now consider Nc1ncnc2c1ncn2C1OC2COP(=O)(O)OC2C1O (stereo not drawn) and answer again.
Response: 2.32 min

Query: Now consider NC(CC(=O)O)C(=O)NC(Cc1ccccc1)C(=O)O (stereo not drawn) and answer again.
Response: 1.73 min

###

test: RP, Waters ACQUITY UPLC HSS C18, 100 × 2.1 mm, 1.7 µm, 40 °C, 0.35 mL/min, estimated dead time 0.63 min; A: water + 0.1% formic acid; B: methanol + 0.1% formic acid; gradient (min/%B) 0/0.5 4/70 4.5/98 5.4/98; settings: stereoisomer not certain
Please respond with fulfilled when measured LC retention time is strictly beneath 3 min, and with not fulfilled in all other cases.

Query: Given O=P(O)(O)OCC1OC(O)C(O)C1O (stereo not drawn) , is recorded LC retention time strictly lower than 3 min?
Response: fulfilled

Query: Now consider O=C1NS(=O)(=O)c2ccccc21 and answer again.
Response: fulfilled

Query: Now consider O=C(O)C=Cc1ccc(O)cc1 and answer again.
Response: not fulfilled

Query: Now consider O=C(O)CCO and answer again.
Response: fulfilled

Query: Now consider O=c1ccn(C2CC(O)C(CO)O2)c(=O)[nH]1 (stereo not drawn) and answer again.
Response: fulfilled

Query: Now consider CCC1CCC(=O)O1 (stereo not drawn) and answer again.
Response: not fulfilled

Query: Now consider Nc1ccn(C2OC(CO)C(OP(=O)(O)O)C2O)c(=O)n1 (stereo not drawn) and answer again.
Response: fulfilled
